- test_details: Initial solubility screening of selected drugs in cyclodextrin derivative:water-miscible organic solvent stock solutions
- Format: physicochemical
- experimental_parameters: 20-22 mg drug; HBenβCD6.6 (32 wt %), PEG 400 (64.6 wt %), EtOH (3.4 wt %); raloxifene HCl + ca. 100 mg water, tamoxifen citrate + ca. 40 mg water
Structures can show the parent of a compound that is named as a salt.
Each entry below lists one item and its recorded grams of stock solution required to solubilize the drug, Stock #5 value.
Answer with a number only, understood to be in grams.

See these solved cases before continuing.
[[record]]
compound = "O=C(c1ccc(OCCN2CCCCC2)cc1)c1c(-c2ccc(O)cc2)sc2cc(O)ccc12 [Raloxifene HCL]"
unit_text = "grams"
readout_value = 1.6

[[record]]
compound = "C=C1C[C@@H]2[C@H](CC[C@]3(C)C(=O)CC[C@@H]23)[C@@]2(C)C=CC(=O)C=C12"
unit_text = "grams"
readout_value = 1.5


Let us move to another entry and its grams of stock solution required to solubilize the drug, Stock #5.
[Q] I have this compound here, "CC(C)(C#N)c1cc(Cn2cncn2)cc(C(C)(C)C#N)c1" , and I need its recorded grams of stock solution required to solubilize the drug, Stock #5.
[A] 1.0

All values here come from patent US20060105045A1.
